tested on: Mus musculus; assay: Muscarinic activity tested by measuring tremor in mice after iv administration; type: functional
Property measured: ED50 (µmol/kg)

>>> df
                               molecule  test_value
0  O=C1CCCN1CC#CCN1CCCC1 [OXOTREMORINE]        0.44
1               CN(CC#CCN1CCCC1=O)CCCBr         6.3
2              CN(CC#CCN1CCCC1=O)CCCCCl         3.6
3                CN(CC#CCN1CCCC1=O)CCCI         8.9
